propertyMeasured: melting point

Please review the following examples before continuing.
>>> print(df.to_string())
                                   molecule  experimentalvalue
0  Cc1cn2cc(-c3cc4ccc(N5CCN(C(C)(C)C)CC5)cc4oc3=O)nc2c(C)n1      270 to 272 °C
1  Cc1csc2nc(-c3cc4ccc(N5CCCN(C)CC5)cc4oc3=O)cn12      182 to 185 °C

So what's the measured melting point for this one? "CCc1ccn2cc(-c3cc4ccc(N5CCN(C)CC5)cc4oc3=O)nc2c1"
203 to 211 °C

Any idea what its melting point is? The molecule is "CN(C)c1ccc(-c2cc3ccc(N4CCNCC4)cc3oc2=O)cn1"
179 to 181 °C

Item under review: "O=c1oc2cc(N3CCN(CCO)CC3)ccc2cc1-c1cc2ccccn2n1" . Reported melting point?
201 to 205 °C

Using the record for "Cc1cn2cc(-c3cc4ccc(N5C[C@H]6CCN(C)[C@H]6C5)cc4oc3=O)nc2c(C)n1" , report its melting point.
255 to 263 °C

Look at this molecule and give its reported melting point. "Cc1ccn2cc(-c3cc4ccc(N5CCNCC5)cc4oc3=O)nc2n1"
295 to 298 °C
